Data credit: the NIST ThermoML archive (doi:10.1021/acs.jced.8b00213)

test: xn = mol fraction of the nth substance listed; details: 338.15 K; 100 kPa; Liquid; Vibrating tube method; x1 = 0.25
QUANTITY_NAME: mass density (kg/m3)

1) C[N+](C)(C)Cc1ccccc1.[Cl-] [trimethylbenzylammonium chloride] + OCCOCCO
1085.7
2) C[N+](C)(C)Cc1ccccc1.[Cl-] [trimethylbenzylammonium chloride] + OCC(O)CO
1158.29
3) CCCC[N+](CCCC)(CCCC)Cc1ccccc1.[Cl-] [benzyltributylammonium chloride] + OCC(O)CO
1077.58
4) C[N+](C)(C)Cc1ccccc1.[Cl-] [trimethylbenzylammonium chloride] + OCCO
1076.82

====

This section presents compounds with their documented mass density values.
test: xn = mol fraction of the nth substance listed; details: 308.15 K; 100 kPa; Liquid; Vibrating tube method; x1 = 0.25
QUANTITY_NAME: mass density (kg/m3)

1) CCCC[N+](CCCC)(CCCC)Cc1ccccc1.[Cl-] [benzyltributylammonium chloride] + OCC(O)CO
1096.41
2) CCCC[N+](CCCC)(CCCC)Cc1ccccc1.[Cl-] [benzyltributylammonium chloride] + OCCO
1029.6
3) CCCC[N+](CCCC)(CCCC)Cc1ccccc1.[Cl-] [benzyltributylammonium chloride] + OCCOCCO
1048.41
4) CCCC[N+](CCCC)(CCCC)Cc1ccccc1.[Cl-] [benzyltributylammonium chloride] + OCCOCCOCCO
1061.53
5) C[N+](C)(C)Cc1ccccc1.[Cl-] [trimethylbenzylammonium chloride] + OCC(O)CO
1176.07
6) C[N+](C)(C)Cc1ccccc1.[Cl-] [trimethylbenzylammonium chloride] + OCCOCCO
1104.33
7) C[N+](C)(C)Cc1ccccc1.[Cl-] [trimethylbenzylammonium chloride] + OCCOCCOCCO
1110.57
8) C[N+](C)(C)Cc1ccccc1.[Cl-] [trimethylbenzylammonium chloride] + OCCO
1094.87

====

This section presents compounds with their documented speed of sound values.
test: xn = mol fraction of the nth substance listed; conditions: 333.15 K; 100 kPa; Liquid; Single path-length method; x1 = 0.25
QUANTITY_NAME: speed of sound (m/s)

1. C[N+](C)(C)Cc1ccccc1.[Cl-] [trimethylbenzylammonium chloride] + OCCO
1730.7
2. CCCC[N+](CCCC)(CCCC)Cc1ccccc1.[Cl-] [benzyltributylammonium chloride] + OCC(O)CO
1681.5
3. CCCC[N+](CCCC)(CCCC)Cc1ccccc1.[Cl-] [benzyltributylammonium chloride] + OCCOCCOCCO
1557.1
4. CCCC[N+](CCCC)(CCCC)Cc1ccccc1.[Cl-] [benzyltributylammonium chloride] + OCCO
1576
5. C[N+](C)(C)Cc1ccccc1.[Cl-] [trimethylbenzylammonium chloride] + OCCOCCOCCO
1633.6
6. C[N+](C)(C)Cc1ccccc1.[Cl-] [trimethylbenzylammonium chloride] + OCCOCCO
1656.6
7. C[N+](C)(C)Cc1ccccc1.[Cl-] [trimethylbenzylammonium chloride] + OCC(O)CO
1847.9
8. CCCC[N+](CCCC)(CCCC)Cc1ccccc1.[Cl-] [benzyltributylammonium chloride] + OCCOCCO
1562.1

====

assay: xn = mol fraction of the nth substance listed; conditions: 323.15 K; 100 kPa; Liquid; Falling or rolling sphere viscometry; x1 = 0.25
This section presents compounds with their documented viscosity values.
QUANTITY_NAME: viscosity (mPa·s)

1) C[N+](C)(C)Cc1ccccc1.[Cl-] [trimethylbenzylammonium chloride] + OCCOCCO
27.8
2) C[N+](C)(C)Cc1ccccc1.[Cl-] [trimethylbenzylammonium chloride] + OCCOCCOCCO
68.5
3) CCCC[N+](CCCC)(CCCC)Cc1ccccc1.[Cl-] [benzyltributylammonium chloride] + OCCOCCO
76.23
4) CCCC[N+](CCCC)(CCCC)Cc1ccccc1.[Cl-] [benzyltributylammonium chloride] + OCCOCCOCCO
67.7

====

This section presents molecules with their documented mass density values.
assay: xn = mol fraction of the nth substance listed; conditions: 333.15 K; 100 kPa; Liquid; Vibrating tube method; x1 = 0.25
QUANTITY_NAME: mass density (kg/m3)

1) C[N+](C)(C)Cc1ccccc1.[Cl-] [trimethylbenzylammonium chloride] + OCC(O)CO
1161.27
2) CCCC[N+](CCCC)(CCCC)Cc1ccccc1.[Cl-] [benzyltributylammonium chloride] + OCCOCCO
1032.94
3) CCCC[N+](CCCC)(CCCC)Cc1ccccc1.[Cl-] [benzyltributylammonium chloride] + OCC(O)CO
1080.72
4) C[N+](C)(C)Cc1ccccc1.[Cl-] [trimethylbenzylammonium chloride] + OCCO
1079.82
5) CCCC[N+](CCCC)(CCCC)Cc1ccccc1.[Cl-] [benzyltributylammonium chloride] + OCCOCCOCCO
1045.18
6) C[N+](C)(C)Cc1ccccc1.[Cl-] [trimethylbenzylammonium chloride] + OCCOCCO
1088.79
7) CCCC[N+](CCCC)(CCCC)Cc1ccccc1.[Cl-] [benzyltributylammonium chloride] + OCCO
1013.82
8) C[N+](C)(C)Cc1ccccc1.[Cl-] [trimethylbenzylammonium chloride] + OCCOCCOCCO
1093.9

====

This section presents compounds with their documented mass density values.
assay: xn = mol fraction of the nth substance listed; conditions: 283.15 K; 100 kPa; Liquid; Vibrating tube method; x1 = 0.25
Numbers after ± are expanded uncertainties.
QUANTITY_NAME: mass density

1) C[N+](C)(C)Cc1ccccc1.[Cl-] [trimethylbenzylammonium chloride] + OCCOCCOCCO
1127.45 ± 11 kg/m3
2) C[N+](C)(C)Cc1ccccc1.[Cl-] [trimethylbenzylammonium chloride] + OCC(O)CO
1190.87 ± 12 kg/m3
3) CCCC[N+](CCCC)(CCCC)Cc1ccccc1.[Cl-] [benzyltributylammonium chloride] + OCCO
1045.37 ± 11 kg/m3
4) C[N+](C)(C)Cc1ccccc1.[Cl-] [trimethylbenzylammonium chloride] + OCCO
1110.06 ± 11 kg/m3
5) CCCC[N+](CCCC)(CCCC)Cc1ccccc1.[Cl-] [benzyltributylammonium chloride] + OCCOCCOCCO
1077.97 ± 11 kg/m3
6) C[N+](C)(C)Cc1ccccc1.[Cl-] [trimethylbenzylammonium chloride] + OCCOCCO
1120.06 ± 11 kg/m3
7) CCCC[N+](CCCC)(CCCC)Cc1ccccc1.[Cl-] [benzyltributylammonium chloride] + OCCOCCO
1063.94 ± 11 kg/m3
8) CCCC[N+](CCCC)(CCCC)Cc1ccccc1.[Cl-] [benzyltributylammonium chloride] + OCC(O)CO
1112.02 ± 11 kg/m3

====

This section presents compounds with their documented refractive index values.
assay: refractive index (Na D-line) (dimensionless); xn = mol fraction of the nth substance listed; conditions: 328.15 K; 100 kPa; Liquid; Standard Abbe refractometry; x1 = 0.25
Numbers after ± are expanded uncertainties.
QUANTITY_NAME: refractive index

1) CCCC[N+](CCCC)(CCCC)Cc1ccccc1.[Cl-] [benzyltributylammonium chloride] + OCCOCCO
1.4815 ± 0.0011
2) C[N+](C)(C)Cc1ccccc1.[Cl-] [trimethylbenzylammonium chloride] + OCCOCCOCCO
1.4792 ± 0.0011
3) CCCC[N+](CCCC)(CCCC)Cc1ccccc1.[Cl-] [benzyltributylammonium chloride] + OCCOCCOCCO
1.4795 ± 0.0011
4) C[N+](C)(C)Cc1ccccc1.[Cl-] [trimethylbenzylammonium chloride] + OCCO
1.4864 ± 0.0011
5) C[N+](C)(C)Cc1ccccc1.[Cl-] [trimethylbenzylammonium chloride] + OCCOCCO
1.4826 ± 0.0011
6) CCCC[N+](CCCC)(CCCC)Cc1ccccc1.[Cl-] [benzyltributylammonium chloride] + OCC(O)CO
1.4962 ± 0.0011
7) C[N+](C)(C)Cc1ccccc1.[Cl-] [trimethylbenzylammonium chloride] + OCC(O)CO
1.5014 ± 0.0011
8) CCCC[N+](CCCC)(CCCC)Cc1ccccc1.[Cl-] [benzyltributylammonium chloride] + OCCO
1.4855 ± 0.0011

====

This section presents compounds with their documented electrical conductivity values.
assay: xn = mol fraction of the nth substance listed; details: 338.15 K; 100 kPa; Liquid; Alternating current cell with electrodes; x1 = 0.25
QUANTITY_NAME: electrical conductivity (S/m)

1) CCCC[N+](CCCC)(CCCC)Cc1ccccc1.[Cl-] [benzyltributylammonium chloride] + OCCO
0.315
2) C[N+](C)(C)Cc1ccccc1.[Cl-] [trimethylbenzylammonium chloride] + OCCOCCO
0.611
3) C[N+](C)(C)Cc1ccccc1.[Cl-] [trimethylbenzylammonium chloride] + OCCO
1.41
4) C[N+](C)(C)Cc1ccccc1.[Cl-] [trimethylbenzylammonium chloride] + OCCOCCOCCO
0.44
5) C[N+](C)(C)Cc1ccccc1.[Cl-] [trimethylbenzylammonium chloride] + OCC(O)CO
0.34
6) CCCC[N+](CCCC)(CCCC)Cc1ccccc1.[Cl-] [benzyltributylammonium chloride] + OCCOCCOCCO
0.145
7) CCCC[N+](CCCC)(CCCC)Cc1ccccc1.[Cl-] [benzyltributylammonium chloride] + OCCOCCO
0.178
8) CCCC[N+](CCCC)(CCCC)Cc1ccccc1.[Cl-] [benzyltributylammonium chloride] + OCC(O)CO
0.109
